Target: Serine/threonine-protein kinase BRSK2 (Homo sapiens);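 further: values are mean inhibition of BRSK2 from the GSK PKIS screening dataset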
Sequence (whole entry): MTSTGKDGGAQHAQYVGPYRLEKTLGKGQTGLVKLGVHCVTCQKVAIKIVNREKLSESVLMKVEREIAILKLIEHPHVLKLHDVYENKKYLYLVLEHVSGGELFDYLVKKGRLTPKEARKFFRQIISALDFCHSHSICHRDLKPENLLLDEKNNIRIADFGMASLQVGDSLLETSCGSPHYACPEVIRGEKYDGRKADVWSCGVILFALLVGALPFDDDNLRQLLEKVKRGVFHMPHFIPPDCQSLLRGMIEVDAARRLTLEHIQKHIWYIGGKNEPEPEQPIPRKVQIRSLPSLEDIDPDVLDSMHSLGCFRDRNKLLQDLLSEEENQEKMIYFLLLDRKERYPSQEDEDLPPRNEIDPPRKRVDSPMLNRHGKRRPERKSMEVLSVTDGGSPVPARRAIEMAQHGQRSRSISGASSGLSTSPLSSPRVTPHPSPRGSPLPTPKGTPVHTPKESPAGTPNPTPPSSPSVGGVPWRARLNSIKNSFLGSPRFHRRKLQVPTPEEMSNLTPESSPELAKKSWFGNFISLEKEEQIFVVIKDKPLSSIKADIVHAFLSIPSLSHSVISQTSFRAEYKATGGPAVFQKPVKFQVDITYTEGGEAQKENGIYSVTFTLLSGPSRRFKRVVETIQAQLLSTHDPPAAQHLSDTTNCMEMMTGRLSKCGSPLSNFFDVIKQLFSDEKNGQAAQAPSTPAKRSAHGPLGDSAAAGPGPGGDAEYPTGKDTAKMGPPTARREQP
Details: at 0.1 µM
Mark 1 for reported inhibition of 0.5% or greater; mark 0 for anything smaller.

A selection of reference data follows.
smiles-code | assay-target | assigned-class
CCS(=O)(=O)c1ccc(OC)c(Nc2ncc(-c3cccc(-c4ccccc4F)c3)o2)c1 | Serine/threonine-protein kinase BRSK2 (Homo sapiens) | 0
COc1ccc2cc(-c3c(-c4ccncc4)nc(-c4ccc(S(C)(=O)=O)cc4C)n3C)ccc2c1 | Serine/threonine-protein kinase BRSK2 (Homo sapiens) | 1
CN(c1ccc(NC(=O)Nc2c(Cl)cccc2Cl)cc1)c1ccnc(Nc2cccc(CS(C)(=O)=O)c2)n1 | Serine/threonine-protein kinase BRSK2 (Homo sapiens) | 1
Fc1ccc(-c2c(-c3ccncc3)nc3n2CCS3)cc1 | Serine/threonine-protein kinase BRSK2 (Homo sapiens) | 0

We next turn to a different compound, shown below.
Given `CN1CCN(CCCNc2nc3ccc(Oc4ccc(NC(=O)Nc5cc(C(F)(F)F)ccc5F)cc4)cc3[nH]2)CC1` , state whether its inhibition is at least 0.5%.
1
